Molecular target: HLA-B*40:01
Experiment: IEDB peptide-MHC binding, purified MHC/direct/fluorescence; filed as Kd, often an IC50 or EC50 that approximates it; bounds were set here for any values at or beyond the usual limits of such assays
Conditions: source organism: West Nile virus
VALUE_KIND: log10 of Kd (log10 of the value in µM)

>>> quantitative_readout("REDIWCGSL")
-2.15
>>> quantitative_readout("NEVEVITKL")
-1.10
>>> quantitative_readout("VEGLGLQKL")
-0.64
>>> quantitative_readout("WEALDTMYV")
-1.57
>>> quantitative_readout("NEAKVLELL")
-1.55
>>> quantitative_readout("AEVEEHRTV")
-0.89
>>> quantitative_readout("QEGALHQAL")
-1.85
>>> quantitative_readout("REWFMDLNL")
-2.05
>>> quantitative_readout("KENGVDLSV")
-2.52

From: the Immune Epitope Database (IEDB)
